The values you see were collected from ChEMBL document CHEMBL1127931.

The following compounds are shown together with reported pIC50 values.
# TARGET_OF_ASSAY: Renin (Homo sapiens, UniProt P00797)
# Sequence (P00797 whole entry): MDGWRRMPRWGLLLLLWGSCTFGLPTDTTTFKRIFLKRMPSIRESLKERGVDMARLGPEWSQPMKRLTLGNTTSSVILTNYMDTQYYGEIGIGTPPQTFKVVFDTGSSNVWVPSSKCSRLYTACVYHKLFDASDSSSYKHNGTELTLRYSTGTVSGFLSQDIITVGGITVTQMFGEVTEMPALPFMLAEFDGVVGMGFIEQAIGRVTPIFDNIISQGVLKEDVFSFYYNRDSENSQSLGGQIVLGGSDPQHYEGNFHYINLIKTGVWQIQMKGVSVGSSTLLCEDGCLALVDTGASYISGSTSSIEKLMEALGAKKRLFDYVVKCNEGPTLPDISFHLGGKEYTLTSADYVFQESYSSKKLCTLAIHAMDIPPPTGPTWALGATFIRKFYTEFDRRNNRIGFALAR
# ASSAY_EXPLANATION: Binding affinity towards human renin was determined
pIC50: −log10 of the molar value.

# count of solved cases: 3
COMPOUND | pIC50
CCCCNC(=O)[C@H](C)C[C@H](O)C1C[C@@H](C)[C@@H](c2ccccc2)N1C(=O)OC(C)(C)C (some centres undefined) | < 4.00
CCCCNC(=O)[C@H](C)C[C@H](O)[C@@H](N)C[C@@H](C)Cc1ccccc1 | 4.43
CCCCNC(=O)[C@H](C)C[C@H](O)[C@H](C[C@@H](C)Cc1ccccc1)NC(=O)OC(C)(C)C | < 4.00

# ---- query compound ----
Given the compound `CCCCNC(=O)[C@H](C)C[C@H](O)[C@@H]1C[C@@H](C)[C@@H](c2ccccc2)N1C(=O)OCc1ccccc1` , what is its reported pIC50?
< 4.00
